Origin of the recorded values: patent US20060058231A1

Let's look at some binders and their measured ActRIIa binding (relative to wild type = 1.0).
target: T1, ActRIIa receptor-Fc fusion (UniProt P27037 20-134, limits assumed); test: ELISA-like plate assay, captured BMP-7 from conditioned media, receptor-Fc detection
T1 construct: BMP receptor-Fc fusion used at 5 ug/mL
T1 sequence (P27037 20-134 limits assumed): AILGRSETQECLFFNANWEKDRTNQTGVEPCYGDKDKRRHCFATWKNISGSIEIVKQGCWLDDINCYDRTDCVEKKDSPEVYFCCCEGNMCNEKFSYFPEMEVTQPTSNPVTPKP

{"Binder": "BMP-7 variant I86Q (ligand, In conditioned media; numbering on mature BMP-7) STGGKQRSQNRSKTPKNQEALRMASVAENSSSDQRQACKKHELYVSFRDLGWQDWIIAPEGYAAYYCEGECAFPLNSYMNATNHAQVQTLVHFINPETVPKPCCAPTQLNAISVLYFDDSSNVILKKYRNMVVRACGCH", "Obs value": "0.96 relative to wild type"}

Field: next binder
// sample BMP-7 variant R129S (ligand, In conditioned media; numbering on mature BMP-7) STGGKQRSQNRSKTPKNQEALRMASVAENSSSDQRQACKKHELYVSFRDLGWQDWIIAPEGYAAYYCEGECAFPLNSYMNATNHAIVQTLVHFINPETVPKPCCAPTQLNAISVLYFDDSSNVILKKYSNMVVRACGCH , its ActRIIa binding (relative to wild type = 1.0) was 0.62 relative to wild type
